Each recorded value in this set is attributed to patent US20030134859A1.

- measured.on: human PPAR γ 2 (Homo sapiens)
- Construct: expressed in transfected cells; host or cells: human osteosarcoma MG63, transiently co-transfected with pSG5-hPPARg and the reporter pGV-P2-PPRE
- Sequence (P37231 whole entry): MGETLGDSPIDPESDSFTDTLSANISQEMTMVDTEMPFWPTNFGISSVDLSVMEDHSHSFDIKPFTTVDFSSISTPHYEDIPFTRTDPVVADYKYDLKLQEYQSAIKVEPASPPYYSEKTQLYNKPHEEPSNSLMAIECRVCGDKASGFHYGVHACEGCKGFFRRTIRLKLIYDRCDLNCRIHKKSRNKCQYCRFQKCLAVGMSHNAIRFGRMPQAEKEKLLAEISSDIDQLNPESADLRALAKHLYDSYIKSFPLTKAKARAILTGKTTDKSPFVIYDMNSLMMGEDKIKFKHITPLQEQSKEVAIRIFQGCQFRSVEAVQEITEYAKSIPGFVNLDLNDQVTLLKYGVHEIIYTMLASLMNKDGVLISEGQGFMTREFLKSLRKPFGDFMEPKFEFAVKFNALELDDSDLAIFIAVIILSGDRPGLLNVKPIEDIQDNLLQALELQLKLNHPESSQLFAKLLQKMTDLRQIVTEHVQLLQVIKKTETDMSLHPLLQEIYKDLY
- measurement.protocol: Inhibitory activity against PPAR γ transcription in the presence of agonist compound A, luciferase reporter
- Type: cell-based
- particulars: in the presence of 10 nM compound A (agonist); MG63 cells transfected with pSG5-hPPARg and pGV-P2-PPRE; 24 hr
pIC50: −log10 of the molar value.
outcome.measure: pIC50

smiles.record	measured.on	pIC50
CCCCCCCCNc1ccc(-c2ccc(NC(=O)c3cc([N+](=O)[O-])ccc3Cl)cc2)cc1	human PPAR γ 2 (Homo sapiens)	8.08
O=C(Nc1cccc2nsnc12)c1cc([N+](=O)[O-])ccc1Cl	human PPAR γ 2 (Homo sapiens)	6.15
O=C(Nc1ccc(C(=O)N2CCCC2)cc1)c1cc([N+](=O)[O-])ccc1Cl	human PPAR γ 2 (Homo sapiens)	6.96

(1) N=C(N)NS(=O)(=O)c1ccc(NC(=O)c2cc([N+](=O)[O-])ccc2Cl)cc1
(2) Nc1nc(-c2cccc(NC(=O)c3cc([N+](=O)[O-])ccc3Cl)c2)cs1
(3) O=C(Nc1nncs1)c1cc([N+](=O)[O-])ccc1Cl
(4) Cc1nc(NS(=O)(=O)c2ccc(NC(=O)c3cc([N+](=O)[O-])ccc3Cl)cc2)oc1C
Input: Order the 4 compounds from highest to lowest pIC50. Response field: labels, in requested order.
Output: 2, 3, 1, 4
(2: 7.55, 3: 7.04, 1: 6.44, 4: 6.10)
